Taken from patent US11285140B2.

What follows is a collection of pIC50 values obtained with human Jak2 (a.a. 828-1132) (Homo sapiens (Human)).
Sequence (O60674 828-1132): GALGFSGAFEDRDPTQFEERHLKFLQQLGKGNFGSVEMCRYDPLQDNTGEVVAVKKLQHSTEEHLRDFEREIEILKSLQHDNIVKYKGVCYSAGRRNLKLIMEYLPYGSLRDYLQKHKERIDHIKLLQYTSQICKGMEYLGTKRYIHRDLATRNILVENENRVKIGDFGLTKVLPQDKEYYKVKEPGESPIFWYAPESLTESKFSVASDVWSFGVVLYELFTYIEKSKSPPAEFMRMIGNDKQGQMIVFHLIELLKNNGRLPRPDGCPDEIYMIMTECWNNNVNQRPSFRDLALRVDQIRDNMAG
pIC50: −log10 of the molar value.

Reference set, count: 2
CC(C)(C)C(=O)Nc1cc(CN2CCC(N3CC(CC#N)(n4cc(-c5ncnc6[nH]ccc56)cn4)C3)CC2)ccn1; 7.30 to 8.00
N#CCC1(n2cc(-c3ncnc4[nH]ccc34)cn2)CN(C2CCN(C(=O)C3Cc4ccccc4C3)CC2)C1; 7.30 to 8.00

In the following, a different compound is considered.
[Q] Return pIC50 (reported value) for this compound: `N#CCC1(n2cc(-c3ncnc4[nH]ccc34)cn2)CN(C2CCN(Cc3ccc(F)cc3F)CC2)C1`
[A] 7.30 to 8.00
